These entries and their values trace back to ChEMBL document CHEMBL2203152.

Provide the reported pKi of each item.
# target or test system: D(2) dopamine receptor (Homo sapiens, UniProt P14416)
# Sequence (P14416 whole entry): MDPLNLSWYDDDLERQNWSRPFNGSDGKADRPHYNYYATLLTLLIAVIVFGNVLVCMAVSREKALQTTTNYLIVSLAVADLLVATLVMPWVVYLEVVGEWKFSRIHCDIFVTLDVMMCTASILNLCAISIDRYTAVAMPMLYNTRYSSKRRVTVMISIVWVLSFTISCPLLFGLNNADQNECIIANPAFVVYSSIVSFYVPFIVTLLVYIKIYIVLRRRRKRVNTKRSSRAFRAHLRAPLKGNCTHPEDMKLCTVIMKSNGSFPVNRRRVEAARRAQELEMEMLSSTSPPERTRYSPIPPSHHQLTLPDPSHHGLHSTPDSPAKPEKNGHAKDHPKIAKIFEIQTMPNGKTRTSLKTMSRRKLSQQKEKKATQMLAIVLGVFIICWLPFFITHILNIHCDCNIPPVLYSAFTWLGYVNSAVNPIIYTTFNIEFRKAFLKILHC
# measurement description: Displacement of [3H]methylspiperone from human low affinity Dopamine D2S receptor by competition binding assay
The read-out pKi is expressed as -log10 of concentration in moles per litre.

Test item CCCN1CCC(n2ccc3ccccc32)CC1 ; D(2) dopamine receptor (Homo sapiens, UniProt P14416); reported pKi was 5.94

Test item CCCN1CCC(c2n[nH]c3ccccc23)CC1 ; D(2) dopamine receptor (Homo sapiens, UniProt P14416); reported pKi was 5.97

Test item CCCN1CCC(n2c(=O)[nH]c3cc(Cl)ccc32)CC1 ; D(2) dopamine receptor (Homo sapiens, UniProt P14416); reported pKi was 6.43

Test item CCCN1CCC(c2noc3cc(F)ccc23)CC1 ; D(2) dopamine receptor (Homo sapiens, UniProt P14416); reported pKi was 6.71

Test item CCCN1CCC(c2cn(C)c3ccc(F)cc23)CC1 ; D(2) dopamine receptor (Homo sapiens, UniProt P14416); reported pKi was 7.49

Test item CCCN1CCC(c2coc3ccccc23)CC1 ; D(2) dopamine receptor (Homo sapiens, UniProt P14416); reported pKi was 5.57

Test item CCCN1CCC(c2ccc3ccccc3c2)CC1 ; D(2) dopamine receptor (Homo sapiens, UniProt P14416); reported pKi was 5.54

Test item CCCN1CCC(c2csc3ccccc23)CC1 ; D(2) dopamine receptor (Homo sapiens, UniProt P14416); reported pKi was 6.92

Test item CCCN1CCC(N2C(=O)C(=O)c3ccccc32)CC1 ; D(2) dopamine receptor (Homo sapiens, UniProt P14416); reported pKi was 4.92

Test item CCCN1CCC(c2cn(C)c3cc(F)ccc23)CC1 ; D(2) dopamine receptor (Homo sapiens, UniProt P14416); reported pKi was 6.56

Test item CCCN1CCC(c2c[nH]c3cc(F)ccc23)CC1 ; D(2) dopamine receptor (Homo sapiens, UniProt P14416); reported pKi was 7.57

Test item CCCN1CCC(c2cccc3ccccc23)CC1 ; D(2) dopamine receptor (Homo sapiens, UniProt P14416); reported pKi was 6.95

Test item CCCN1CCC(n2c(=O)n(C)c3cc(Cl)ccc32)CC1 ; D(2) dopamine receptor (Homo sapiens, UniProt P14416); reported pKi was 5.70

Test item CCCN1CCC(c2cc3ccccc3s2)CC1 ; D(2) dopamine receptor (Homo sapiens, UniProt P14416); reported pKi was 5.63

###

# target or test system: Amine oxidase [flavin-containing] A (Rattus norvegicus, UniProt P21396)
# Sequence (P21396 whole entry): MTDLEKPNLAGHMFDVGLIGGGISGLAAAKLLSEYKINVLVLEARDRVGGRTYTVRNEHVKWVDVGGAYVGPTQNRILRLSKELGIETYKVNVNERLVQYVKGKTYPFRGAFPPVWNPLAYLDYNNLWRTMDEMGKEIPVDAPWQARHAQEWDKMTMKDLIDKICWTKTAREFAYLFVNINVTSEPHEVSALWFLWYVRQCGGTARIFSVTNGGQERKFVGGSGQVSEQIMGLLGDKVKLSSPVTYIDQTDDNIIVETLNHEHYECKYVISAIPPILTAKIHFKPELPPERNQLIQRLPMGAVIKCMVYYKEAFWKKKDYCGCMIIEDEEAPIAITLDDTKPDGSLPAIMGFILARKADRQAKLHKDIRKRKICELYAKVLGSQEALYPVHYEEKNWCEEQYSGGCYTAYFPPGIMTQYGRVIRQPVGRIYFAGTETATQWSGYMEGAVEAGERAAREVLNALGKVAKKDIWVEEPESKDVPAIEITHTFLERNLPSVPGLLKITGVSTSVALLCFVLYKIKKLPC
Category key, based on recorded Ki: b0 (below 2 µM), b1 (2 µM to below 7 µM), b2 (7 µM or more)

Hi, small favor: classify CCCN1CCC(c2cn(C)c3cc(F)ccc23)CC1 by its Ki when you get a moment.
b1

Hi, small favor: classify CCCN1CCC(c2cccc3ccccc23)CC1 by its Ki when you get a moment.
b1

Hi, small favor: classify CCCN1CCC(c2n[nH]c3ccccc23)CC1 by its Ki when you get a moment.
b2

Hi, small favor: classify CCCN1CCC(c2csc3ccccc23)CC1 by its Ki when you get a moment.
b2

Hi, small favor: classify CCCN1CCC(c2cc3ccccc3s2)CC1 by its Ki when you get a moment.
b0

Hi, small favor: classify CCCN1CCC(c2noc3cc(F)ccc23)CC1 by its Ki when you get a moment.
b1

Hi, small favor: classify CCCN1CCC(c2ccc3ccccc3c2)CC1 by its Ki when you get a moment.
b0

Hi, small favor: classify CCCN1CCC(c2coc3ccccc23)CC1 by its Ki when you get a moment.
b0

Hi, small favor: classify CCCN1CCC(c2c[nH]c3cc(F)ccc23)CC1 by its Ki when you get a moment.
b2

Hi, small favor: classify CCCN1CCC(n2ccc3ccccc32)CC1 by its Ki when you get a moment.
b2
